Measured values drawn from PubChem BioAssay AID624467 for this set.

- measurement_target: Trace amine-associated receptor 1 (Homo sapiens) (UniProt Q96RJ0)
- Sequence (Q96RJ0 whole entry, looked up): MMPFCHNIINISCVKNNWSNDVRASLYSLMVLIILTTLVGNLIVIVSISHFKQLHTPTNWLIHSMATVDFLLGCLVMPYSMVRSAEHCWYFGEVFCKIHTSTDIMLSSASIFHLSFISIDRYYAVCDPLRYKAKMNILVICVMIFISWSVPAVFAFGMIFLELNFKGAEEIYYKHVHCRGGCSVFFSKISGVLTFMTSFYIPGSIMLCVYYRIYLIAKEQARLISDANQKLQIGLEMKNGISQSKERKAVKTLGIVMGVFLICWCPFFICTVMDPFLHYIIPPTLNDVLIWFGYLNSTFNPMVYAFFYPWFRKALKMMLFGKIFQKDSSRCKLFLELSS
- assay_info: activators of TAAR1 calcium mobilization – Fluo-8 calcium fluorescence, CHO RD-HGA16 cells, primary screen (AID 624467)
- setup_conditions: CHO RD-HGA16 TAAR1, Fluo-8 calcium fluorescence; at 3 µM; stronger effect = higher value; vehicle wells 0%, saturating PEA agonist 100%
About 3,600 (1%) of roughly 360,000 compounds were called active. The sample as a whole holds a higher share of actives than the screen did.
Assignment: determine reported activation for the given molecules.
Answers are plain numbers, in %.

In the examples that follow, each entry is paired with its recorded activation.
- molecule: "Cc1ccc(C)c(-n2nnnc2SCC(=O)c2c(N)n(C)c(=O)n(C)c2=O)c1"
  activation [%]: 2.95
- molecule: "COC(=O)[C@]12C[C@H](CC(=O)NCc3ccc(OC)c(OC)c3)C(=O)N(Cc3ccccc3)C1=C[C@H](C(C)C)O[C@@H]2C1CC1"
  activation [%]: -0.82
- molecule: "Cc1ccc(O)c(NC(=S)NC(=O)COc2ccc(Br)cc2)c1"
  activation [%]: 108
- molecule: "Cc1ccc(O)c(/C=N/NC(=O)COc2ccc3c(C)cc(=O)oc3c2)c1"
  activation [%]: 6.72
- molecule: "Cc1ccc(S(=O)(=O)n2nc(OC(=O)C(C)(C)C)cc2N)cc1"
  activation [%]: 2.73

Please give activation, item by item, for the list that follows.
1. CN1C(=O)/C(=N/OC(=O)c2ccccc2Br)c2ccccc21
2. Cn1nccc1NC(=O)CC(CC(=O)O)c1ccccc1 (centres undefined)
3. CCOC(=O)C1=C(C(=O)OCC)C2N(Cc3ccc(C#N)cc3)c3ccccc3[C@@]23C[C@@H](C(=O)OC)N(S(=O)(=O)c2ccc(F)cc2)C3=N1 (some centres undefined)
4. Cc1ccsc1C(=O)NNC(=O)COc1ccc(Br)cc1

Result:
1: 2.86; 2: 1.46; 3: -0.08; 4: 1.12

* * *

- measurement_target: Trace amine-associated receptor 1 (Homo sapiens) (UniProt Q96RJ0)
- assay_info: activators of TAAR1 calcium mobilization – Fluo-8 calcium fluorescence, CHO RD-HGA16 cells, primary screen (AID 624467)
- setup_conditions: CHO RD-HGA16 TAAR1, Fluo-8 calcium fluorescence; at 3 µM; stronger effect = higher value; vehicle wells 0%, saturating PEA agonist 100%
In all, about 360,000 compounds went through this assay and about 3,600 (1%) were called active. This excerpt belongs to a sample that is enriched for actives.
Assignment: determine reported activation for the given compounds.
One number for each entry, in %.

In the examples that follow, each entry is paired with its recorded activation.
- compound: "CCCCCc1c(-c2ccc(OC)c(OC)c2)ncn1CCc1ccccc1OC"
  activation / %: 60.6
- compound: "CCCCOCC1CN(CCCC)S(=O)(=O)c2c(Oc3ccc(F)cc3)cccc2O1 (stereo not given)"
  activation / %: 1.51
- compound: "CCCCCc1c(-c2cccc(Br)c2)ncn1CCc1ccccc1OC"
  activation / %: 50.1
- compound: "O=C(C1CCN(c2nnc(-n3cccc3)s2)CC1)N1CCc2ccccc2C1"
  activation / %: 40.9
- compound: "CCc1c(-c2ccc(F)cc2)ncn1Cc1cccc(-c2ccccc2)c1"
  activation / %: 0.6
- compound: "COc1cc(S(=O)(=O)N2CCN=C2c2ccccc2)ccc1Cl"
  activation / %: -0.47
- compound: "CSc1ccc(CCNC(=O)C2CCN(c3nnc(-n4cccc4)s3)CC2)cc1"
  activation / %: -0.88
- compound: "COC(=O)c1ccc2nc(-c3cccc(Br)c3)c(Cc3ccccc3C(F)(F)F)n2c1"
  activation / %: 4.12

Please give activation, item by item, for the list that follows.
1. CC(C)c1ccc(S(=O)(=O)NC2CCCC2)cc1
2. Cc1cccc(CCNS(=O)(=O)c2ccc3c(c2)NC(=O)CO3)c1
3. CCOc1ncccc1C(=O)OCC(=O)c1c[nH]c2ccccc12
4. CCCCN1C(=O)C(C)=C(C)C1OCCc1ccc(OC)c(OC)c1 (stereo not given)
5. S=C(NCCc1ccccc1)N1CCn2cccc2C1c1ccncc1 (stereo not given)
6. Cn1c(=O)c2c(ncn2CCc2ccccc2)n(C)c1=O

Result:
1: 1.12; 2: 5.47; 3: 14.1; 4: 2.56; 5: 96.1; 6: 2.07

Please give activation, item by item, for the list that follows.
1. CCCCCc1c(Cc2ccccc2)ncn1CCc1ccccc1OC
2. O=C(NC1CCCC1)C(c1ccc(Cl)cc1)N(C(=O)c1csnn1)C1CC1 (stereo not given)
3. S=C(Nc1cccc(Br)c1)N1CCn2cccc2C1c1cccnc1 (stereo not given)
4. CCOC(=O)C1CCCN(C(=O)C2CCN(c3nnc(-n4cccc4)s3)CC2)C1 (stereo not given)
5. C[C@H](NC(=O)c1ccccc1)C(=O)OCC(=O)c1c[nH]c2ccccc12

Result:
[62.8, 2.16, 11.1, -0.39, 70]

Q: Which activation reading was recorded for the compound CC1CCCCN1C(=S)NCc1ccccc1 (stereo not given) ?
Result: 5.09

* * *

- measurement_target: Trace amine-associated receptor 1 (Homo sapiens)
- assay_info: activators of TAAR1 calcium mobilization – Fluo-8 calcium fluorescence, CHO RD-HGA16 cells, primary screen (AID 624467)
- setup_conditions: CHO RD-HGA16 TAAR1, Fluo-8 calcium fluorescence; at 3 µM; vehicle wells 0%, saturating PEA agonist 100%
About 3,600 (1%) of roughly 360,000 compounds were called active.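 How the source made its calls: active means activation above the mean activation of all test compounds in the run plus 3 SD (cut at about 38% in these data); inactive means the rest.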 This excerpt belongs to a sample that is enriched for actives.
Please state which outcome applies, choosing from active, inactive

Some solved cases for reference:
- compound: "COc1ccc(C(=O)OCC(=O)NCC2CCCO2)cc1[N+](=O)[O-] (stereo not given)"
  group_label: "inactive"
- compound: "O=C(C(=O)N1CCN(c2ccccc2)CC1)c1ccc2c(c1)OCO2"
  group_label: "inactive"
- compound: "O=C(NCCCc1ccccc1)C(=O)NCC1OCCN1S(=O)(=O)c1ccccc1 (stereo not given)"
  group_label: "inactive"
- compound: "O=C(NCc1ccccc1)[C@H]1CCCN1C(=O)[C@H]1CCCN1C(=O)N1CCOCC1"
  group_label: "inactive"
- compound: "N=C1C(c2nc3ccccc3[nH]2)=C(O)CN1NC(=O)c1c[nH]c2ccccc12"
  group_label: "active"
- compound: "CCCNC(=O)CCc1c(C)nc2c(c(C)nn2-c2ccccc2)c1C"
  group_label: "inactive"
- compound: "COC(=O)c1cc2c(c3c4ccccc4n(S(=O)(=O)c4cccc(C)c4)c13)C(=O)N(Cc1ccccc1)C2"
  group_label: "inactive"
- compound: "CCc1ccc(N2CC(O)=C(c3nc4ccccc4c(=O)[nH]3)C2=N)cc1"
  group_label: "inactive"

Q: Identify the outcome logged in this assay for the compound shown: O=C(NCCc1ccccc1)C(=O)NCC1OCCN1S(=O)(=O)c1cccs1 (stereo not given)
Result: active

Q: Identify the outcome logged in this assay for the compound shown: COc1ccc(C2/C=C\CN(CC(C)C)CC(=O)N2Cc2ccc(F)cc2)cc1 (stereo not given)
Result: inactive

* * *

- measurement_target: Trace amine-associated receptor 1 (Homo sapiens)
- assay_info: activators of TAAR1 calcium mobilization – Fluo-8 calcium fluorescence, CHO RD-HGA16 cells, primary screen (AID 624467)
- setup_conditions: CHO RD-HGA16 TAAR1, Fluo-8 calcium fluorescence; at 3 µM; stronger effect = higher value; vehicle wells 0%, saturating PEA agonist 100%
Among all 360,000 compounds or so, about 3,600 (1%) were called active. For the sample, actives were picked, then their nearest neighbours and some compounds at random.
Assignment: determine reported activation for the given molecules.
Numbers only, in %.

In the examples that follow, each entry is paired with its recorded activation.
- molecule: "Cc1ccccc1N/C(SCc1ccc(Cl)cc1)=C(/C#N)C(N)=O"
  measurement_target: "Trace amine-associated receptor 1 (Homo sapiens)"
  activation [%]: 6.27
- molecule: "Cc1cc(CN(C)C(=O)c2cc(COc3ccc(C)c(C)c3)on2)n[nH]1"
  measurement_target: "Trace amine-associated receptor 1 (Homo sapiens)"
  activation [%]: 2.87
- molecule: "O=C(NCc1ccccc1)[C@H]1CCCN1C(=O)[C@@H]1CCCN1C(=O)c1ccc(Cl)cc1Cl"
  measurement_target: "Trace amine-associated receptor 1 (Homo sapiens)"
  activation [%]: 0.11
- molecule: "Cc1cc(N2CCOCC2)nc2ccc(NC(=S)N3CCN(Cc4ccccc4)CC3)cc12"
  measurement_target: "Trace amine-associated receptor 1 (Homo sapiens)"
  activation [%]: 7.44
- molecule: "Nc1ccn([C@@H]2O[C@H](C(=O)N[C@H]3CCCCNC3=O)[C@@H](O)[C@H]2O)c(=O)n1"
  measurement_target: "Trace amine-associated receptor 1 (Homo sapiens)"
  activation [%]: -0.44
- molecule: "CCOC(=O)C1=C(CC)Nc2ccccc2N=C1NC(=O)c1cccc(S(=O)(=O)N2CCCC2)c1"
  measurement_target: "Trace amine-associated receptor 1 (Homo sapiens)"
  activation [%]: 7.96
- molecule: "CN(CCO)C(=O)c1nc[nH]c1C(=O)N(C)Cc1ccccc1"
  measurement_target: "Trace amine-associated receptor 1 (Homo sapiens)"
  activation [%]: 0.95
- molecule: "S=C(Nc1ccc(Br)cc1Cl)NC1CCN(Cc2ccccc2)CC1"
  measurement_target: "Trace amine-associated receptor 1 (Homo sapiens)"
  activation [%]: 18
- molecule: "C=CCNC(=O)COC(=O)c1ccccc1C(=O)N(C)C1CCCCC1"
  measurement_target: "Trace amine-associated receptor 1 (Homo sapiens)"
  activation [%]: 5.08
- molecule: "C=CCNC(=O)COC(=O)CNC(=O)c1cc(Cl)cc([N+](=O)[O-])c1"
  measurement_target: "Trace amine-associated receptor 1 (Homo sapiens)"
  activation [%]: -0.52

Please give activation, item by item, for the list that follows.
1. Cc1ccccc1NC(=S)NC(=O)Cc1ccc(Cl)cc1
2. COC(=O)[C@]12C[C@H](CC(=O)NCc3ccccc3)C(=O)N(CCC3=CCCCC3)C1=C[C@H](C(C)(C)C)O[C@@H]2C
3. NC(=O)Nc1ccccc1C(=O)NCCc1ccccc1
4. CCCc1cc(C(=O)Nc2ccc(Cl)cn2)cs1
5. Cn1c(=O)c(=O)n(C)c2cc(S(=O)(=O)NCCN3CCN(c4ccccc4F)CC3)ccc21
6. CC(NC(=O)c1cc(-c2ccccc2)on1)c1ccccc1 (stereo not drawn)
7. CC(C)S(=O)(=O)c1csc(NC(=O)Nc2ccc(Cl)cc2)c1Cl
8. O=C(Cn1cnc2c(cnn2-c2ccc(F)cc2)c1=O)NCCc1ccccc1

Result:
[82.3, -2.08, 10.1, 0.75, -1.59, 52, 17.9, -0.7]
